The values you see were collected from ChEMBL document CHEMBL3988442.

Test system: Leishmania donovani
Assay protocol: Leishmania intramacrophage assay
Format: functional, organism-based
Set-up: scale not given: in the data most compounds retested in dose-response had high values
Test conditions: 30.3 µM; […]
About 1,000 (1.4%) of roughly 69,000 compounds showed an effect of 50% or more. This is one part of a sample in which strong results are shown more often than they occur.
For each record, check the reported Percent Effect: if it is below 50% write YES, else write NO.

> print(dat)
                                    molecule  label
 1  Cc1cc2c(c(-c3c[nH]c(C)n3)c1)OC(CN)C2 (stereo unspecified)    YES
 2  NCC1Cc2cc(-c3cncc(C(=O)N4CCCCC4)n3)cc(F)c2O1 (stereo unspecified)    YES
 3  CC(C)CCn1nc2ccc(S(=O)(=O)N3CCOCC3)cn2c1=O    YES
 4  CC(C)N1CCC2(CCCN(c3nccc(C(F)(F)F)n3)C2)CC1.O=C(O)C(F)(F)F     NO
 5  Cc1cc(Nc2ccccn2)nc(C2CCCN(CCO)C2)n1.O=CO (stereo unspecified)    YES
 6  OCC1CCCN1c1cc(NCCc2ccccn2)ncn1 (stereo unspecified)    YES
 7      CCn1nc2ccc(S(=O)(=O)N3CCSCC3)cn2c1=O    YES
 8  Cc1noc(C)c1CN1CCO[C@H]2CN(Cc3cccc(F)c3)C[C@H]21.O=C(O)C(F)(F)F.O=C(O)C(F)(F)F     NO
 9  NCC1Cc2cc(Cl)cc(-c3cncc(C(=O)N4CCCCC4)n3)c2O1 (stereo unspecified)     NO
10  Cc1nc(Cn2c3c(ccc2=O)CC(NC(N)=O)CC3)cs1 (stereo unspecified)     NO
11  OCC1CCCN1c1cc(NCCc2ccsc2)ncn1 (stereo unspecified)    YES
12  OCC1CCCN1c1cc(NCCNc2cccnn2)ncn1 (stereo unspecified)    YES
13  Cc1cc(Nc2ncccn2)nc(C2CCCN(CCO)C2)n1 (stereo unspecified)    YES
14  Cc1nc(Cn2c3c(ccc2=O)CC(N)CC3)cs1 (stereo unspecified)    YES
15  CCC(=O)N1CCC2(CCN(Cc3cccc(F)c3)CC2)CC1.O=C(O)C(F)(F)F    YES
